Experiment: In vitro cytotoxicity assay, CCK-8 method
Assay type: cell-based
Conditions: human, HepG2 cells
Description: In vitro cytotoxicity assay for the compounds disclosed herein was performed in HepG2 cells using the CCK-8 method. HepG2 cells (Beina Bio) in the logarithmic growth phase were collected, the concentration of cell suspension was adjusted, and then the cells were plated on a 96-well cell culture plate at 50,000 cells/well. […] Absorbance at OD450nm was measured for each well on a microplate reader, and CC50 value of each compound was analyzed and calculated.
value.type: CC50 at 48 h

Consider the following illustrative entries.
Just so you know, measured CC50 at 48 h for COC(=O)N1CCO[C@@H](Cc2c(-c3c(F)cc(N4CC=CC4=O)cc3F)nc3cc(C)ccn23)C1 [Compound 169] came out at > 100 µM

Form field CC50 at 48 h, entry COc1cc(C(C)C)c(Oc2cnc(N)nc2N)cc1S(N)(=O)=O [Positive compound 2, reference compound] : > 200 µM

Entry COC(=O)N1CCO[C@@H](Cc2c(-c3c(F)cc(N)cc3F)nc3cc(Cl)ccn23)C1 [Compound 161] , CC50 at 48 h reported as > 100 µM

Sample CNC(=O)c1cc(F)c(-c2nc3cc(C)ccn3c2C[C@H]2CN(C(=O)OC)CCO2)c(F)c1 [Positive compound 1, reference compound] ; CC50 at 48 h observed: 128 µM

response.value for CC(=O)N1CCO[C@@H](Cc2c(-c3c(F)cc(-c4ncco4)cc3F)nc3cc(C)ccn23)C1 [Compound 163] (field: CC50 at 48 h) = > 100 µM

Would you be so kind as to report CC50 at 48 h for each listed record?
1. COC(=O)N1CCO[C@@H](Cc2c(-c3c(F)cc(-n4ccnc4)cc3F)nc3cc(C)ccn23)C1 [Compound 5]
2. CCC(=O)c1ccn(-c2cc(F)c(-c3nc4cc(C)ccn4c3C[C@H]3CN(C(=O)OC)CCO3)c(F)c2)n1 [Compound 164]
3. COC(=O)N1CCO[C@@H](Cc2c(-c3c(F)cc(S(N)(=O)=O)cc3F)nc3cc(C)ccn23)C1 [Compound 171]
4. COC(=O)N1CCO[C@@H](Cc2c(-c3c(F)cc(-c4ccc[nH]4)cc3F)nc3cc(C)ccn23)C1 [Compound 4]
5. COC(=O)N1CCO[C@@H](Cc2c(-c3c(F)cc(S(N)(=O)=O)cc3F)nc3cc(Cl)ccn23)C1 [Compound 172]
6. COC(=O)N1CCO[C@@H](Cc2c(-c3c(F)cc(NC(=O)CCC(=O)O)cc3F)nc3cc(C)ccn23)C1 [Compound 25]
7. COC(=O)N1CCO[C@@H](Cc2c(-c3c(F)cc(S(N)(=O)=O)cc3F)nc3cc(C)c(F)cn23)C1 [Compound 182]
8. COC(=O)N1CCO[C@@H](Cc2c(-c3ccc(S(N)(=O)=O)cc3C)nc3cc(C)ccn23)C1 [Compound 184]

1. 72 µM
2. > 100 µM
3. 200 µM
4. 13.2 µM
5. 57.1 µM
6. > 100 µM
7. > 200 µM
8. > 200 µM

Item: CC(=O)N1CCO[C@@H](Cc2c(-c3c(F)cc(-n4cccn4)cc3F)nc3cc(Cl)ccn23)C1 [Compound 160] | CC50 at 48 h: > 100 µM
